# TEST SYSTEM: T1, human GIP receptor (human, UniProt P48546 22-466)
# T1 sequence (looked up): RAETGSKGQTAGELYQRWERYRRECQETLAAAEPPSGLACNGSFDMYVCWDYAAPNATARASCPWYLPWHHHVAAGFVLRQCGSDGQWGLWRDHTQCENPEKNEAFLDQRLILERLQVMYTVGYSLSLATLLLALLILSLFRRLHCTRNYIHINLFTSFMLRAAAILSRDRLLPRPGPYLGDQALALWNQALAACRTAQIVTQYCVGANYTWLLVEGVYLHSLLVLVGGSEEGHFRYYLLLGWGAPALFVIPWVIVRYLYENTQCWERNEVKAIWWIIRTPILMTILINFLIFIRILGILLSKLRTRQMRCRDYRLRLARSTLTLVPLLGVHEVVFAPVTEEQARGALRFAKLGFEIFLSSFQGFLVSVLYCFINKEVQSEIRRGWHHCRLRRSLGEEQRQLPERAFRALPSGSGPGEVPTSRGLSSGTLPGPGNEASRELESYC
# ASSAY SUMMARY: cell-based or functional assay
Starred links: 1 amine or outer side, 2 acyl side, 3 side chain; linkers in the order of their positions; H or OH if unused. Non-standard residues stand in square brackets, D forms with d. Groups on a side chain read outwards from the residue. No end group written: not given here. *: point of attachment. C20 diacid = O=C(O)CCCCCCCCCCCCCCCCCCC(=O)*; C18 diacid = O=C(O)CCCCCCCCCCCCCCCCC(=O)*; γGlu = O=C(O)[C@H](CCC(=O)[*:2])N[*:1]; AEEA = NCCOCCOCC(=O)O; Aib = CC(C)(N)C(=O)O
Below, each entry is listed alongside its reported EC50 hGIPR 100% hP (CreLuc).

BINDER	EC50 hGIPR 100% hP (CreLuc)
Y[Aib]EGTFTSDYSI[Aib]LEKQAQ[Aib]AFVQWLIK([AEEA-AEEA-γGlu-γGlu-γGlu-γGlu-C20 diacid])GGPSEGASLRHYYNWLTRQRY-NH2 (also: TFA salt) [Compound 269]	1.23 nM
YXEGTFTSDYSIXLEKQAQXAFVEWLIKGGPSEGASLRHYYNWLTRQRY (Aib at 2, 13, 20; K28 side chain acylated with C20DA-gGlu-gGlu-gGlu-gGlu-gGlu; C-terminal amide (NH2)) [Compound 289]	1.75 nM
Y[Aib]EGTFTSDYSI[Aib]LEKQAQ[Aib]AFVEWLIK([γGlu-γGlu-γGlu-γGlu-γGlu-γGlu-C20 diacid])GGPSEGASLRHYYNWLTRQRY-NH2 (also: TFA salt) [Compound 305]	2.81 nM
Y[Aib]EGTFTSDYSI[Aib]LEKQAQ[Aib]AFVEWLIK([Glu-Glu-Glu-Glu-Glu-Glu-C18 diacid])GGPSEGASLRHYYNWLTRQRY-NH2 (also: TFA salt) [Compound 302]	3.87 nM
